Would you kindly list pKi for each of these compounds?
Biological target: 5-hydroxytryptamine receptor 1A (Rattus norvegicus)
Sequence (P19327 whole entry): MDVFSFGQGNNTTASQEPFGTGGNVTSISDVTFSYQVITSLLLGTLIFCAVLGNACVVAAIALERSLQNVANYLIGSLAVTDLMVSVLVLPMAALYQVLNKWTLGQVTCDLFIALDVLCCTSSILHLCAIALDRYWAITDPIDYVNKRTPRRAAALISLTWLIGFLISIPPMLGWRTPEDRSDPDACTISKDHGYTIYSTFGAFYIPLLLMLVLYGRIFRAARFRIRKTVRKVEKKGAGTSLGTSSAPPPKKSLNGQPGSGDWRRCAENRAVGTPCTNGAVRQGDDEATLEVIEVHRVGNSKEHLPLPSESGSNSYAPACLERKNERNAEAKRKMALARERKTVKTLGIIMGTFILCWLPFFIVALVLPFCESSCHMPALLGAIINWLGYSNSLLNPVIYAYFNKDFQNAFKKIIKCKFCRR
Assay: Binding affinity against 5-hydroxytryptamine 1A receptor in homogenated rat brain tissue, using by [3H]8-OH-DPAT as radioligand
Format: tissue-based
Conceptually, pKi converts a concentration in mol/L into minus its log10.

Record CCCN(CCC)C1CCc2ccc(O)cc2C1 (centres undefined) . Reported pKi: 5.55

Measured pKi of CCCNC1CCc2cccc(OS(=O)(=O)C(F)(F)F)c2C1 (centres undefined) : 8.42

Short answer for CCCN(CCC)C1CCc2c(O)cccc2C1 (centres undefined) : pKi was 5.98

// sample CCCN(CCC)C1CCc2c(cccc2OS(=O)(=O)C(F)(F)F)C1 (centres undefined) , its pKi was 6.80

Consider CCCN(CCC)C1CCc2cc(OS(=O)(=O)C(F)(F)F)ccc2C1 (centres undefined) . Its measured pKi is 4.80

Measured pKi of CCCN(CCC)C1CCc2cccc(OS(=O)(=O)C(F)(F)F)c2C1 (centres undefined) : 8.02

According to the records, this compound CCCN(CCC)C1CCc2ccc(OS(=O)(=O)C(F)(F)F)cc2C1 (centres undefined) displays pKi of 6.44

The compound identified as `CCCN(CCC)[C@@H]1CCc2ccc(O)cc2C1` registered its pKi at 5.49

Per the record, CCCN(CCC)C1CCc2c(cccc2OC)C1 (centres undefined) has pKi of 6.36

* * *

target: D(2) dopamine receptor (Rattus norvegicus, UniProt P61169); assay: Binding affinity against dopamine receptor D2 in rat brain tissue using [3H]spiperone; type: tissue-based
Sequence (P61169 whole entry): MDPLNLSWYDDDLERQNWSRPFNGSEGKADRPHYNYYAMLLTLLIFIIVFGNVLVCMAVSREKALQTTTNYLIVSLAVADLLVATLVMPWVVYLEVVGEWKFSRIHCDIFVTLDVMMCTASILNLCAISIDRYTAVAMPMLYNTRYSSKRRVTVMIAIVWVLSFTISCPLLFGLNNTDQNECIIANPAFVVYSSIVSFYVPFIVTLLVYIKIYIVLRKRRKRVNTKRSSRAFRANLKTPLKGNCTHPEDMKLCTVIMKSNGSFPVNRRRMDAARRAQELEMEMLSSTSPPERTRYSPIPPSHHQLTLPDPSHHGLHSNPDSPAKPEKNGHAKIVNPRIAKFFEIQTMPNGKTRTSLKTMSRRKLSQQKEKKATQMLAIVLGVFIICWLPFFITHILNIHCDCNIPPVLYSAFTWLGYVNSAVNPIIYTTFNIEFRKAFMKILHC
Give measured log10 of Ki for each item. Keep answers brief.
Transform log10 | Measure Ki | Unit nM

Documented log10 of Ki of CCCN(CCC)C1CCc2c(cccc2OC)C1 (stereo unspecified) : 2.00

GET /value?item= CCCN(CCC)C1CCc2c(cccc2OS(=O)(=O)C(F)(F)F)C1 (stereo unspecified) &field=log10 of Ki returns 1.81

// CCCN(CCC)C1CCc2cc(OS(=O)(=O)C(F)(F)F)ccc2C1 (stereo unspecified) : log10 of Ki value = 3.20

get_value(item= CCCNC1CCc2cccc(OS(=O)(=O)C(F)(F)F)c2C1 (stereo unspecified) , readout=log10 of Ki) returns 3.13

# log10 of Ki of CCCN(CCC)C1CCc2ccc(OS(=O)(=O)C(F)(F)F)cc2C1 (stereo unspecified) = 3.11

// CCCN(CCC)C1CCc2cccc(OS(=O)(=O)C(F)(F)F)c2C1 (stereo unspecified) : log10 of Ki value = 2.83

* * *

target: Dopamine receptor (Rattus norvegicus) (UniProt P25115+P19020+P30729+P18901+P61169); assay: Effective dose for half-maximal decrease in the accumulation of DOPA in reserpinized rat brain limbic area by sc administration; type: functional, organism-based
Task for the reader: assign each of the following molecules its reported ED50.
Give just the number in µmol/kg; leave the unit off.

// ED50 lookup, molecule = CCCN(CCC)C1CCc2ccc(OS(=O)(=O)C(F)(F)F)cc2C1 (stereo unspecified) , result: 1.6

Entry CCCN(CCC)C1CCc2c(cccc2OS(=O)(=O)C(F)(F)F)C1 (stereo unspecified) ; ED50 = 0.4

// recorded ED50 for CCCN(CCC)C1CCc2cc(OS(=O)(=O)C(F)(F)F)ccc2C1 (stereo unspecified) : 2

Entry under test: CCCN(CCC)C1CCc2c(cccc2OC)C1 (stereo unspecified) . Its ED50 was 0.01

The reported ED50 of the molecule CCCN(CCC)C1CCc2ccc(O)cc2C1 (stereo unspecified) was 0.03

The recorded ED50 for entry CCCN(CCC)C1CCc2c(O)cccc2C1 (stereo unspecified) equals 0.01

* * *

test: Effective dose for half-maximal decrease in the accumulation of 5-hydroxytryptophan (5-HTP) in reserpinized rat brain hemispheral area by sc administration; assay type: functional
Recorded endpoint: ED50 (µmol/kg)
Response body: numeric value in µmol/kg, unit text excluded.

# ED50 of CCCN(CCC)C1CCc2ccc(OS(=O)(=O)C(F)(F)F)cc2C1 (centres undefined) = 27

# ED50 (compound: CCCN(CCC)C1CCc2cccc(OC)c2C1 (centres undefined) ) is 0.2

response.value for CCCN(CCC)C1CCc2cccc(OS(=O)(=O)C(F)(F)F)c2C1 (centres undefined) (field: ED50) = 10

// ED50 lookup, compound = CCCNC1CCc2cccc(OS(=O)(=O)C(F)(F)F)c2C1 (centres undefined) , result: 1.1

* * *

target: D(2) dopamine receptor (Rattus norvegicus); experiment: Binding affinity against dopamine receptor D2 in homogenated rat brain tissue, using by ([3H]N00437) as radioligand; format: tissue-based
Recorded endpoint: Ki (nM)
Write the value in nM as a bare number.

Ki measured on CCCN(CCC)C1CCc2c(cccc2OS(=O)(=O)C(F)(F)F)C1 (stereo not drawn) = 28

response.value for CCCN(CCC)C1CCc2ccc(OS(=O)(=O)C(F)(F)F)cc2C1 (stereo not drawn) (field: Ki) = 150

The reported value for CCCN(CCC)C1CCc2cc(OS(=O)(=O)C(F)(F)F)ccc2C1 (stereo not drawn) in terms of Ki is 99

* * *

target: Dopamine receptor (Rattus norvegicus) (UniProt P25115+P19020+P30729+P18901+P61169); experiment: Effective dose for half-maximal decrease in the accumulation of DOPA in reserpinized rat brain striatal area by sc administration; type: functional, organism-based
Recorded endpoint: ED50 (µmol/kg)
Numbers only; they are read as µmol/kg.

Looking up CCCN(CCC)C1CCc2c(cccc2OS(=O)(=O)C(F)(F)F)C1 (stereo unspecified) , I see its ED50 listed as 0.5

For reference, reported ED50 for CCCN(CCC)C1CCc2c(cccc2OC)C1 (stereo unspecified) stands at 0.02

Entry CCCN(CCC)C1CCc2ccc(OS(=O)(=O)C(F)(F)F)cc2C1 (stereo unspecified) ; ED50 = 0.4

Record summary for CCCN(CCC)C1CCc2ccc(O)cc2C1 (stereo unspecified) : reported ED50 = 0.03

Summary for this molecule, CCCN(CCC)C1CCc2c(O)cccc2C1 (stereo unspecified) : ED50 is 0.01

The reported ED50 of the molecule CCCN(CCC)C1CCc2cc(OS(=O)(=O)C(F)(F)F)ccc2C1 (stereo unspecified) was 1.3

* * *

target: Dopamine receptor (Rattus norvegicus) (UniProt P25115+P19020+P30729+P18901+P61169); test: Effective dose for half-maximal decrease in the accumulation of DOPA in reserpinized rat brain striatal area by po administration; assay type: functional, organism-based
Recorded endpoint: ED50
Express the reported value numerically, then name its unit.

Entry CCCN(CCC)C1CCc2c(cccc2OC)C1 (centres undefined) — recorded ED50 = 0.2 µmol/kg

Memo: CCCN(CCC)C1CCc2c(cccc2OS(=O)(=O)C(F)(F)F)C1 (centres undefined) , reported ED50: 7.9 µmol/kg

Value of ED50 reported for the compound CCCN(CCC)C1CCc2cccc(OC)c2C1 (centres undefined) is 12.5 µmol/kg

Looking up CCCN(CCC)C1CCc2c(O)cccc2C1 (centres undefined) [5-OH-DPAT] , I see its ED50 listed as 0.5 µmol/kg

* * *

molecular target: UniProt:P19327; assay: Binding affinity against 5-hydroxytryptamine 1A receptor in homogenated rat brain tissue, using by [3H]8-OH-DPAT as radioligand; assay type: tissue-based
Recorded endpoint: Ki (nM)
Please reply with the bare figure in nM and do not write the unit itself.

Value sought: Ki, system UniProt:P19327, item CCCN(CCC)C1CCc2cccc(OC)c2C1 (stereo unspecified) . Result: 10

* * *

target: Dopamine receptor (Rattus norvegicus) (UniProt P25115+P19020+P30729+P18901+P61169); assay: Effective dose for half-maximal decrease in the accumulation of DOPA in reserpinized rat brain limbic area by po administration; format: functional, organism-based
Recorded endpoint: ED50 (µmol/kg)
The reply should be a number in µmol/kg, with the unit left off.

Sample CCCN(CCC)C1CCc2c(cccc2OS(=O)(=O)C(F)(F)F)C1 (centres undefined) ; ED50 observed: 6.2

// CCCN(CCC)C1CCc2cccc(OC)c2C1 (centres undefined) : ED50 value = 5.5

Reported ED50 for CCCN(CCC)C1CCc2c(cccc2OC)C1 (centres undefined) was 0.2

Quick note, ED50 for CCCN(CCC)C1CCc2c(O)cccc2C1 (centres undefined) landed at 0.7

The measured values listed here are drawn from ChEMBL document CHEMBL1126882.
